- Test system: Staphylococcus aureus
- testName: Antibacterial activity against multidrug-resistant Staphylococcus aureus NRS70 assessed as reduction in bacterial growth incubated for 16 to 18 hrs by two fold serial dilution method
- Format: functional
- runConditions: time 16-18 hrs
Exercise: state measured MIC for each of the compounds provided.
Give your result in mg/L as a bare value.

Exercise: Quick one: give measured MIC for O=C(NCc1ccc(OC(=O)c2ccc([N+](=O)[O-])s2)c(Cl)c1)c1ccc([N+](=O)[O-])s1
Key: 0.39

Exercise: Quick one: give measured MIC for COc1cc(CNC(=O)c2ccc([N+](=O)[O-])s2)ccc1OC(=O)c1ccc([N+](=O)[O-])s1
Key: 0.78

Exercise: Quick one: give measured MIC for COc1cc(OC(=O)c2ccc([N+](=O)[O-])s2)ccc1CNC(=O)c1ccc([N+](=O)[O-])s1
Key: 0.78
